# ASSAYED SYSTEM: UniProtKB P81908
# TEST PROTOCOL: Partial non-competitive inhibition of equine serum BChE using butyrylthiocholine iodide as substrate by Dixon and slope replot analysis
MEASURED ENDPOINT: Ki

**Q:** Which measured Ki belongs to CCN1CCN(c2ccc(C3CC(c4ccc(OC)c(OC)c4)=NN3C(C)=O)cc2)CC1 (stereo unspecified) , tested on UniProtKB P81908?
**A:** 2220 nM

----------
# TEST PROTOCOL: Cytotoxicity against mouse L929 cells assessed as cell viability at 10 uM incubated for 24 hrs by MTT assay (reference value: 100%)
# Assay type: cell-based
# MEASUREMENT PARAMETERS: read-out: Activity
MEASURED ENDPOINT: viability at 24 h, 10 µM (%)
Quick reminder: number only, in %, skip the unit.

Completed entries (count: 4):
COc1ccc(C2=NN(C(C)=O)C(c3ccc(N4CCC(C)CC4)cc3)C2)cc1OC (stereo not given); 95.4
COc1ccc(C2=NN(C(C)=O)C(c3ccc(N4CCN(C)CC4)cc3)C2)cc1OC (stereo not given); 93.3
COc1ccc(C2=NN(C(C)=O)C(c3ccc(N4CCC(Cc5ccccc5)CC4)cc3)C2)cc1OC (stereo not given); 101
CCN1CCN(c2ccc(C3CC(c4ccc(OC)c(OC)c4)=NN3C(C)=O)cc2)CC1 (stereo not given); 89.2

**Q:** What value of viability at 24 h, 10 µM has been recorded for this entry: COc1ccc(C2=NN(C(C)=O)C(c3ccc(N4CCN(Cc5ccccc5)CC4)cc3)C2)cc1OC (stereo not given)
**A:** 93.3

----------
# ASSAYED SYSTEM: Cholinesterase (Equus caballus)
# Sequence (P81908 whole entry): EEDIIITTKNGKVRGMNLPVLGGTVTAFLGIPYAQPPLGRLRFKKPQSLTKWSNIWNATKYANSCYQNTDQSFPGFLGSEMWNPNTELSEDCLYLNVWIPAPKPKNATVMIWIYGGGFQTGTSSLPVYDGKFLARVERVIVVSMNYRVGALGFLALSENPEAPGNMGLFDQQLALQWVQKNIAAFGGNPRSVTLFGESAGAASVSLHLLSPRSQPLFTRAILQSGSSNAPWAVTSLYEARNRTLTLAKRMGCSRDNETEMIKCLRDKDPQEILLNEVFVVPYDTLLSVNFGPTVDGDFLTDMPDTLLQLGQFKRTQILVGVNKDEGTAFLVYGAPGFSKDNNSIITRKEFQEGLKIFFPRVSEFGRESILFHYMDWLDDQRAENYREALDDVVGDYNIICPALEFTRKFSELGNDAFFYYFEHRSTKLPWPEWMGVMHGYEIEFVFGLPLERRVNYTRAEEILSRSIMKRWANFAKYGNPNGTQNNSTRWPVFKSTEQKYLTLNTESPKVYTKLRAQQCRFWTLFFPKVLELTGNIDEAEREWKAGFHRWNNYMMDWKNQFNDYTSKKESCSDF
# TEST PROTOCOL: Inhibition of equine serum BChE using butyrylthiocholine iodide as substrate by Ellman's method
pIC50: −log10 of the molar value.
Answer Condition not met if pIC50 is under 5, and Condition met if it is 5 or more.

Answered examples (4):
COc1ccc(C2=NN(C(C)=O)C(c3ccc(N4CCN(c5ccccc5)CC4)cc3)C2)cc1OC (stereo unspecified); Condition not met
COc1ccc(C2=NN(C(C)=O)C(c3ccc(N4CCN(C)CC4)cc3)C2)cc1OC (stereo unspecified); Condition met
COc1ccc(C2=NN(C(C)=O)C(c3ccc(-n4ccnc4)cc3)C2)cc1OC (stereo unspecified); Condition not met
COc1ccc(C2=NN(C(C)=O)C(c3ccc(-n4cncn4)cc3)C2)cc1OC (stereo unspecified); Condition not met

**Q:** Test whether the molecule COc1ccc(C2=NN(C(C)=O)C(c3ccc(N4CCN(Cc5ccccc5)CC4)cc3)C2)cc1 (stereo unspecified) records pIC50 of 5 or higher.
**A:** Condition not met

**Q:** State whether the measured pIC50 reaches 5, counting equality as reaching it, for COc1ccc(C2=NN(C(C)=O)C(c3ccc(N4CCC(C)CC4)cc3)C2)cc1OC (stereo unspecified)
**A:** Condition met

----------
# ASSAYED SYSTEM: Acetylcholinesterase (Homo sapiens, UniProt P22303)
# Sequence (P22303 whole entry): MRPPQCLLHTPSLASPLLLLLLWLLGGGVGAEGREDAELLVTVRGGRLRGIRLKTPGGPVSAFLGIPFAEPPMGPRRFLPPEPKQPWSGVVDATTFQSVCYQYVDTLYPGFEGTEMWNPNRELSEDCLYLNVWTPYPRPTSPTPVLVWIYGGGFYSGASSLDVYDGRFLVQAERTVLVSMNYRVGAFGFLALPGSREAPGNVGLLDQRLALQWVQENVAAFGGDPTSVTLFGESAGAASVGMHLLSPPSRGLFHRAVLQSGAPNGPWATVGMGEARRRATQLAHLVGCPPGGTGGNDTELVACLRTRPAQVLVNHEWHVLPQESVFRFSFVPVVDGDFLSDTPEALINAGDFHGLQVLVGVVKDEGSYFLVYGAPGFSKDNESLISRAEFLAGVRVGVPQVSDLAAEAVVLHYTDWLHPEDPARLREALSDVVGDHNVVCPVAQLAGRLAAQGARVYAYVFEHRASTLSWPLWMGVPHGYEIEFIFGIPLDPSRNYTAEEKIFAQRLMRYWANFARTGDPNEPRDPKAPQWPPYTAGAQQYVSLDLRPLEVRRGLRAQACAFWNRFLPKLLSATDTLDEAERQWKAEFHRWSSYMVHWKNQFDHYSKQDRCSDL
# TEST PROTOCOL: Inhibition of human recombinant AChE expressed in HEK293 cells using acetylthiocholine iodide as substrate by Ellman's method
MEASURED ENDPOINT: log10 of IC50 (log10 of the value in µM)
Give log10 of IC50, with IC50 taken in µM.

As a guide, the following entries are already answered.
COc1ccc(C2=NN(C(C)=O)C(c3ccc(N4CCN(c5ccccc5)CC4)cc3)C2)cc1OC (stereo not drawn); 2.47
COc1ccc(C2=NN(C(C)=O)C(c3ccc(N4CCN(Cc5ccccc5)CC4)cc3)C2)cc1 (stereo not drawn); 2.00
COc1ccc(C2=NN(C(C)=O)C(c3ccc(-n4cncn4)cc3)C2)cc1OC (stereo not drawn); 2.98
COc1ccc(C2=NN(C(C)=O)C(c3ccc(N4CCN(Cc5ccccc5)CC4)cc3)C2)cc1OC (stereo not drawn); 1.80
COc1ccc(C2=NN(C(C)=O)C(c3ccc(N4CCC(C)CC4)cc3)C2)cc1OC (stereo not drawn); 1.89

**Q:** Returns the measured log10 of IC50 for the input compound. Input: COc1ccc(C2=NN(C(C)=O)C(c3ccc(-n4cnc5ccccc54)cc3)C2)cc1OC (stereo not drawn)
**A:** 2.50

**Q:** Please report the recorded log10 of IC50 for COc1ccc(C2=NN(C(C)=O)C(c3ccc(N4CCN(C)CC4)cc3)C2)cc1OC (stereo not drawn) .
**A:** 0.81

**Q:** Return reported log10 of IC50; argument: COc1ccc(C2=NN(C(C)=O)C(c3ccc(N4CCC(Cc5ccccc5)CC4)cc3)C2)cc1OC (stereo not drawn)
**A:** 1.30
